target: Recombinant human MASP2 enzyme (fragment corresponding to amino acids 297-686, C-terminal His Tag) (human, UniProt O00187 297-686); test: cell-based or functional assay
Sequence (O00187 other isoform, or with tags, fused parts or gaps limits assumed): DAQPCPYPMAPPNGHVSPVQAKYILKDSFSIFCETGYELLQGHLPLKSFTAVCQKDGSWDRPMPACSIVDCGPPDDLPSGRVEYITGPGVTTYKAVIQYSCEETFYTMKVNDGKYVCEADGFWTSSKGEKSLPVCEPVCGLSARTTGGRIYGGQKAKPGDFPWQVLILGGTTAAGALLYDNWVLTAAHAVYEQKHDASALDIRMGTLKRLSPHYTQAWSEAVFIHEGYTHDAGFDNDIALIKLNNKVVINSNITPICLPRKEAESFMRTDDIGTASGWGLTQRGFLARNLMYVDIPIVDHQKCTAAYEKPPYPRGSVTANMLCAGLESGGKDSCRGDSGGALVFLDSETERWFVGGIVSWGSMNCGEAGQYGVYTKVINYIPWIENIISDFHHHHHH
Numbered stars: 1 amine (or outer) side, 2 acyl side, 3 side chain; on linkers, the order of the positions; unused ones are H or OH. Bridge positions count the residues as written; N and C are the ends. Square brackets hold non-standard residues; d marks the D form. Ends that are not written are not given here. X17 = 2‑((1S,2S)-1-(Amino)-2-methylbutyl)‑1,3‑oxazole‑4‑carboxylic acid, CC[C@H](C)[C@H](N[*:1])c1nc(C(=O)[*:2])co1; Oic = O=C(O)[C@@H]1C[C@@H]2CCCC[C@@H]2N1; tBuAla = CC(C)(C)C[C@H](N)C(=O)O; Pen = CC(C)(S)[C@H](N)C(=O)O; NMeC = CN[C@@H](CS)C(=O)O; Orn = NCCC[C@H](N)C(=O)O; Sar = CNCC(=O)O
parameter measured: human MASP2 IC50 (nM)

>>> val("[Orn]ICSRS[tBuAla]PPI[NMeC][X17]D-NH2 (disulfide 3-11; N-terminus assumed; SMILES CC[C@H](C)[C@H](NC(=O)[C@@H](N)CCCN)C(=O)N[C@H]1CSSC[C@@H](C(=O)N[C@H](c2nc(C(=O)N[C@@H](CC(=O)O)C(N)=O)co2)[C@@H](C)CC)N(C)C(=O)[C@H]([C@@H](C)CC)NC(=O)[C@@H]2CCCN2C(=O)[C@@H]2CCCN2C(=O)[C@H](CC(C)(C)C)NC(=O)[C@H](CO)NC(=O)[C@H](CCCNC(=N)N)NC(=O)[C@H](CO)NC1=O)")
910
>>> val("[Sar]ICSRSLP[Oic]I[Pen]I-NH2 (disulfide 3-11; N-terminus assumed; SMILES CC[C@H](C)[C@H](NC(=O)[C@H]1NC(=O)[C@H]([C@@H](C)CC)NC(=O)[C@@H]2C[C@@H]3CCCC[C@@H]3N2C(=O)[C@@H]2CCCN2C(=O)[C@H](CC(C)C)NC(=O)[C@H](CO)NC(=O)[C@H](CCCNC(=N)N)NC(=O)[C@H](CO)NC(=O)[C@@H](NC(=O)[C@@H](NC(=O)CNC)[C@@H](C)CC)CSSC1(C)C)C(N)=O) [((N-Me)G)-IC+SRSLP-(Oic)-I-(Pen)+I-NH2]")
295
>>> val("[Sar]ICSRSLP[Oic]I[Pen]IP-NH2 (disulfide 3-11; also: acetate salt) [((N-Me)G)-IC+SRSLP-(Oic)-I-(Pen)+IP-NH2 (Acetate)]")
37
>>> val("ICSRS[tBuAla]PPI[Pen]IPP-NH2 (disulfide 2-10; N-terminus assumed; SMILES CC[C@H](C)[C@H](N)C(=O)N[C@H]1CSSC(C)(C)[C@@H](C(=O)N[C@H](C(=O)N2CCC[C@H]2C(=O)N2CCC[C@H]2C(N)=O)[C@@H](C)CC)NC(=O)[C@H]([C@@H](C)CC)NC(=O)[C@@H]2CCCN2C(=O)[C@@H]2CCCN2C(=O)[C@H](CC(C)(C)C)NC(=O)[C@H](CO)NC(=O)[C@H](CCCNC(=N)N)NC(=O)[C@H](CO)NC1=O) [IC+SRS-((tBu)A)-PPI-(Pen)+IPP-NH2]")
500
>>> val("FICSRS[tBuAla]PPI[NMeC]I-NH2 (disulfide 3-11; N-terminus assumed; SMILES CC[C@H](C)[C@H](NC(=O)[C@@H]1CSSC[C@H](NC(=O)[C@@H](NC(=O)[C@@H](N)Cc2ccccc2)[C@@H](C)CC)C(=O)N[C@@H](CO)C(=O)N[C@@H](CCCNC(=N)N)C(=O)N[C@@H](CO)C(=O)N[C@@H](CC(C)(C)C)C(=O)N2CCC[C@H]2C(=O)N2CCC[C@H]2C(=O)N[C@@H]([C@@H](C)CC)C(=O)N1C)C(N)=O) [FIC+SRS-((tBu)A)-PPI-((N-Me)C)+I-NH2]")
170

src = patent US20210246166A1
